assay: Neuroprotective activity in human SH-SY5Y cells assessed as reduction of H2O2-induced apoptosis at 50 uM after 24 hrs by MTT assay relative to control; assay type: functional, cell-based; parameters: scale not given: the % may be the effect or the level left
Property name: Activity

[
  {
    "Compound": "COc1cc(C(=O)OC2CCC(NC(=N)NCCS)CC2)cc(OC)c1O (stereo not drawn)",
    "Property name": "Activity",
    "Result": "65.9%"
  },
  {
    "Compound": "COc1cc(C(=O)OCCCCNC(=N)NCCS)cc(OC)c1O",
    "Property name": "Activity",
    "Result": "60.4%"
  },
  {
    "Compound": "N=C(NCCS)NCCCCCCO",
    "Property name": "Activity",
    "Result": "52.9%"
  },
  {
    "Compound": "N=C(NCCS)NCCCCCO",
    "Property name": "Activity",
    "Result": "82.8%"
  },
  {
    "Compound": "CC(O)CNC(=N)NCCS (stereo not drawn)",
    "Property name": "Activity",
    "Result": "65.5%"
  },
  {
    "Compound": "N=C(NCCS)NCCCN",
    "Property name": "Activity",
    "Result": "96.5%"
  },
  {
    "Compound": "N=C(NCCS)NC1CCC(O)CC1 (stereo not drawn)",
    "Property name": "Activity",
    "Result": "30.4%"
  },
  {
    "Compound": "CC(CO)NC(=N)NCCS (stereo not drawn)",
    "Property name": "Activity",
    "Result": "80%"
  }
]
